- Tested On: T1, human galectin-10-His (recombinant human galectin-10 with TEV-cleavable N-terminal His-tag) (human)
- T1 construct: SEC-MALLS: dimer in solution; also called Gal10-His; humanGal10-His
- T1 chain: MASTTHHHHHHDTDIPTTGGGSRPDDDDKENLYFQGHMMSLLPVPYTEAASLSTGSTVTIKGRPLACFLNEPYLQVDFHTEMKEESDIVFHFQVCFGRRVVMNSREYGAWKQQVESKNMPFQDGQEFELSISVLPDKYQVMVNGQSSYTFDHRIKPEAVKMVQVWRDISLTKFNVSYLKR
- Measurement Description: BLI tandem on galectin-10-His; competitor: saturating 6A08 mIgG1 (10 ug/mL)
Measurement Kind: binding signal (nm)
Reply numerically in nm, unit not repeated.

Dear colleague, I am looking for the recorded binding signal (nm) of the following binder: 2F09 mouse IgG1 (antibody, V domains shown, VH on mouse IgG1 heavy chain constant domains (CH1-CH2-CH3), VL on mouse lambda light chain constant domain; also called 2F09 mIgG1) VH: QVQVQESGPGLVKPSQTLSLTCTVSGGSITTNYFYWSWIRQSPGKGLEWIGAIAYSGRTYYSPSLKSRTSISRDTSNNQFTLQLSSVTPEDTAVYYCARGPKGLASYYDYWGQGTQVTVSS VL: SSALTQPSAVSVSLGQTARITCQGGNFGYYYVSWYQQKPGQAPVLVIYRDSGRPSGIPERFSGSSSGDTATLTISGAQAEDEADYYCQSGSSSDNTVFGGGTHLTVL
0.07
